This collection of values is drawn from the supplement of paper PMC11208160.

Experiment: recombinant UMI read abundance after kanamycin selection (control-corrected) (log10(CPM+1)); higher = more efficient recombination; extreme values may be limits of the assay; sequences stand for … in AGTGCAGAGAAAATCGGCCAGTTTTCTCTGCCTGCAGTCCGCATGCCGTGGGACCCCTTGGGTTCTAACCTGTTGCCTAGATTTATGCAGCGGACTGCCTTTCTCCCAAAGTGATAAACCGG…AGGTTGGTTTCACT; site = the 11-nt donor;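 further: IS621 bridge recombinase in Escherichia coli cells against a fixed T5 target plasmid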
Exercise: for every item that follows, state its recorded recombinant UMI read abundance (log10).

For this sequence ( CTACCGCCATGGACCGGTTTTCCCGGTAATCCGTATTTGAC (site CTACCGCCTGT) ), measured recombinant UMI read abundance (log10) is 0.322

For this sequence ( ACATTGGCATGGACCGGTTTTCCCGGTAATCCGTATTTGTT (site ACATTGGCTAA) ), measured recombinant UMI read abundance (log10) is 1.53

For this sequence ( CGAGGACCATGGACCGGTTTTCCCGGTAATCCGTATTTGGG (site CTAGGACCTCC) ), measured recombinant UMI read abundance (log10) is 0.00778

For this sequence ( AGGATTTCATGGACCGGTTTTCCCGGTAATCCGTATTTGCG (site AGGATTTCTCG) ), measured recombinant UMI read abundance (log10) is 1.32

For this sequence ( GCATTGTCATGGACCGGTTTTCCCGGTAATCCGTATTTGCA (site GCATTGTCTTG) ), measured recombinant UMI read abundance (log10) is 2.76

For this sequence ( ACAGCGCCATGGACCGGTTTTCCCGGTAATCCGTATTTGTT (site ACAGCGCCTAA) ), measured recombinant UMI read abundance (log10) is 0.431

For this sequence ( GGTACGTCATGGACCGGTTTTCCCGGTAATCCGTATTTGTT (site GGTACGTCTAG) ), measured recombinant UMI read abundance (log10) is 0

For this sequence ( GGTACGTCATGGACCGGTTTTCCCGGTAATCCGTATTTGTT (site GCTACGTCTAA) ), measured recombinant UMI read abundance (log10) is 0.0161

For this sequence ( GGTTAGGCATGGACCGGTTTTCCCGGTAATCCGTATTTGAG (site GGTTAGGCTCT) ), measured recombinant UMI read abundance (log10) is 0.952

For this sequence ( AGCTAGACATGGACCGGTTTTCCCGGTAATCCGTATTTGGG (site AACTAGACTCC) ), measured recombinant UMI read abundance (log10) is 0.0198

For this sequence ( ATAGTATCATGGACCGGTTTTCCCGGTAATCCGTATTTGAA (site ATAGTATCTTT) ), measured recombinant UMI read abundance (log10) is 3.09

For this sequence ( ATCGTTCCATGGACCGGTTTTCCCGGTAATCCGTATTTGTT (site ATCGTTCCTAA) ), measured recombinant UMI read abundance (log10) is 0.568

For this sequence ( CCACGTGCATGGACCGGTTTTCCCGGTAATCCGTATTTGAT (site CCACGTGCTAT) ), measured recombinant UMI read abundance (log10) is 0.871

For this sequence ( ACACATCCATGGACCGGTTTTCCCGGTAATCCGTATTTGAA (site ACACATCCTAT) ), measured recombinant UMI read abundance (log10) is 0.229

For this sequence ( CAATCGCCATGGACCGGTTTTCCCGGTAATCCGTATTTGTG (site CAACCGCCTCA) ), measured recombinant UMI read abundance (log10) is 0.0282

For this sequence ( GCTAGTGCATGGACCGGTTTTCCCGGTAATCCGTATTTGCC (site GCTACTGCTGG) ), measured recombinant UMI read abundance (log10) is 0

For this sequence ( TCATACTCATGGACCGGTTTTCCCGGTAATCCGTATTTGGA (site TCATACTCTTT) ), measured recombinant UMI read abundance (log10) is 1.17

For this sequence ( ACATCGACATGGACCGGTTTTCCCGGTAATCCGTATTTGTG (site ACATCAACTCA) ), measured recombinant UMI read abundance (log10) is 0.397

For this sequence ( ACTAGTGCATGGACCGGTTTTCCCGGTAATCCGTATTTGGC (site ACTAGTGCTTC) ), measured recombinant UMI read abundance (log10) is 0.32

For this sequence ( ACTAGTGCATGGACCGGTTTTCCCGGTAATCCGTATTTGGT (site ACTAGTGCTAT) ), measured recombinant UMI read abundance (log10) is 1.2

For this sequence ( ACAGAGACATGGACCGGTTTTCCCGGTAATCCGTATTTGCG (site TCAGAGACTCG) ), measured recombinant UMI read abundance (log10) is 2.18

For this sequence ( CTAGGATCATGGACCGGTTTTCCCGGTAATCCGTATTTGAC (site CTAGCATCTGT) ), measured recombinant UMI read abundance (log10) is 1.06
